Source: the supplement of paper PMC12042874

# PROTOCOL_DESCRIPTION: amyloid nucleation score (Sup35N fusion, yeast selection) (log enrichment); library NNK2; higher = more nucleation; inactive = no reads after selection;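 further: zero at mode of non-aggregating sequences after 7 days selection at 30°C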
Here, each record is paired with measured amyloid nucleation score data.
The response must contain the number and no unit.

# count of solved cases: 8
{"columns": ["SUBSTANCE", "amyloid nucleation score"],
 "data": [
  ["SFYRCGLNYCNGTS", 5.94],
  ["HFMSYAAWAREWSVEPQ", 0.967],
  ["RHRRHLNHYAPTSSMIWTYS", 0.258],
  ["YCPDLLHYHL", 0.256],
  ["RRISSKECLYRWGALWYIEI", 0.086],
  ["NLQLTFGS", -0.202],
  ["SSSALEANINQSMEDIKEAF", -0.427],
  ["WLNHYAQLIHRARGHVWNMY", -0.685]
]}

Now for another entry.
Supply amyloid nucleation score value. Item: MNFESNFRNTKCEIFIVIYN
4.62
